System: Plasmodium berghei KBG 173
experimental protocol: Antimalarial blood schizonticidal test in mice
Assay type: in vivo, Plasmodium berghei (infected ICR/HA Swiss mice)
particulars: s.c., at the Min. Curing Dose; alive on day 14 considered cured
Here the recorded Cure/Treat at Min. Curing Dose is given for each entry.

Nc1nc(N)c2c(ccc3c2ccn3Cc2c(Cl)cccc2Cl)n1 ... 1/5
Cc1ccc(Cn2ccc3c4c(N)nc(N)nc4ccc32)c(C)c1 ... 5/5
Nc1nc(N)c2c(ccc3c2ccn3-c2ccc([N+](=O)[O-])cn2)n1 ... 1/5

The measured Cure/Treat at Min. Curing Dose that Cc1ccc(Cn2ccc3c4c(N)nc(N)nc4ccc32)cc1C showed for Plasmodium berghei KBG 173 is 2/5

The measured Cure/Treat at Min. Curing Dose that CSc1ccc(Cn2ccc3c4c(N)nc(N)nc4ccc32)cc1 showed for Plasmodium berghei KBG 173 is 4/5

The measured Cure/Treat at Min. Curing Dose that Nc1nc(N)c2c(ccc3c2ccn3Cc2ccsc2)n1 showed for Plasmodium berghei KBG 173 is 3/5

The measured Cure/Treat at Min. Curing Dose that Cc1ccc(C)c(Cn2c(C)cc3c4c(N)nc(N)nc4ccc32)c1 showed for Plasmodium berghei KBG 173 is 1/5
